biological target: Serotonin 3 (5-HT3) receptor (Rattus norvegicus, UniProt P35563+Q9JJ16)
Sequence (P35563 whole entry): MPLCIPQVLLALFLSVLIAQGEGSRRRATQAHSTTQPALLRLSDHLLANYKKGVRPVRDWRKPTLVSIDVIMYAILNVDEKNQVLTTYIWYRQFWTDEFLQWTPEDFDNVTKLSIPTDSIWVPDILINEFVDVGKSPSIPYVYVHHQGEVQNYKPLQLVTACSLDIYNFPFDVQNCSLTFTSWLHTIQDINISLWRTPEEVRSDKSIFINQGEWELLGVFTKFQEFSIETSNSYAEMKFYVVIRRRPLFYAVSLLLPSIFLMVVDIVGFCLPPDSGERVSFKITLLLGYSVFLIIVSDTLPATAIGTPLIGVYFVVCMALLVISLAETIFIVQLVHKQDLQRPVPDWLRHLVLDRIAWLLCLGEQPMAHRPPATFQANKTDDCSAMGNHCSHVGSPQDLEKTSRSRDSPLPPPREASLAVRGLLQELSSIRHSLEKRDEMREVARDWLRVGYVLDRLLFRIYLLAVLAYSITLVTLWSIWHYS
Sequence (Q9JJ16 whole entry): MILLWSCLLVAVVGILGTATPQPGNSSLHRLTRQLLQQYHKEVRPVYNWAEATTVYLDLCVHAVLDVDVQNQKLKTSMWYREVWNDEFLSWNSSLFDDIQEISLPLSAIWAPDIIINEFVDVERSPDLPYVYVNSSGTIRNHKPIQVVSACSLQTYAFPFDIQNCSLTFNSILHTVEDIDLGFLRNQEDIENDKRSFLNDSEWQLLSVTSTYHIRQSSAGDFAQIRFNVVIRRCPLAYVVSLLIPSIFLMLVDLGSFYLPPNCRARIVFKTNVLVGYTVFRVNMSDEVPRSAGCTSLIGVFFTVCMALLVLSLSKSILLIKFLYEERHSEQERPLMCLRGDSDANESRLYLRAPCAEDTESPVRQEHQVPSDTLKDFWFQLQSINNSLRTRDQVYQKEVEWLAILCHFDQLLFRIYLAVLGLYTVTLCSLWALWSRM
Note to self: Ki under 0.5 nM means y, ties and anything higher get n.

1) CN1CCN(c2nc3ccccc3c3c2COC3=O)CC1 = n
2) CCCc1c(N2CCN(C)CC2)nc2ccccc2c1C(=O)OCC = y
3) CCN(CC)C(=O)c1cc(N2CCN(C)CC2)nc2ccccc12 = n
4) CCCCCCN(CCCCCC)C(=O)c1c(C)c(N2CCN(C)CC2)nc2ccccc12 = n
5) CCCN(CCC)C(=O)c1cc(N2CCN(C)CC2)nc2ccccc12 = n
